tested on: Pharbitis purpurea; assay: Post-emergence herbicidal action against PHBPU; assay type: in vivo; details: 80 g/ha, visual assessment about 3 weeks after treatment
Reported Post-emergence action against PHBPU in % values are given for each entry in this list.
Just the number plus its unit, please.

// solved cases for Post-emergence action against PHBPU in % follow
MOLECULE | RESULT
CCCn1nnnc1NC(=O)c1ccc(C(F)(F)F)c(C(=O)N(C)CC)c1Cl [Example 3-124] | 100%
Cn1nnnc1NC(=O)c1ccc(C(F)(F)F)c(C(=O)N2CCCC2)c1Cl [Example 1-152] | 90%
CCCn1nnnc1NC(=O)c1ccc(C(F)(F)F)c(C(=O)N2CCCC2)c1Cl [Example 3-152] | 100%

// Post-emergence action against PHBPU in % lookup, key: CCn1nnnc1NC(=O)c1ccc(C(F)(F)F)c(C(=O)N2CCCC2)c1Cl [Example 2-152]
80%

And for CCn1nnnc1NC(=O)c1ccc(C(F)(F)F)c(C(=O)n2cccn2)c1Cl [Example 2-153] ?
90%

And for CCN(C)C(=O)c1c(C(F)(F)F)ccc(C(=O)Nc2nnnn2CC)c1Cl [Example 2-124] ?
90%

And for CCn1nnnc1NC(=O)c1ccc(C(F)(F)F)c(C(=O)N(C)CC2CC2)c1Cl [Example 2-126] ?
100%

And for Cn1nnnc1NC(=O)c1ccc(C(F)(F)F)c(C(=O)n2cccn2)c1Cl [Example 1-153] ?
90%

And for CCCn1nnnc1NC(=O)c1ccc(C(F)(F)F)c(C(=O)N(C)CC2CC2)c1Cl [Example 3-126] ?
100%

And for CN(CC1CC1)C(=O)c1c(C(F)(F)F)ccc(C(=O)Nc2nnnn2C)c1Cl [Example 1-126] ?
100%
